Biological target: human glucagon receptor (Homo sapiens, UniProt P47871)
Construct: expressed in transfected cells; host or cells: BHK (baby hamster kidney) cells
Sequence (P47871 26-477): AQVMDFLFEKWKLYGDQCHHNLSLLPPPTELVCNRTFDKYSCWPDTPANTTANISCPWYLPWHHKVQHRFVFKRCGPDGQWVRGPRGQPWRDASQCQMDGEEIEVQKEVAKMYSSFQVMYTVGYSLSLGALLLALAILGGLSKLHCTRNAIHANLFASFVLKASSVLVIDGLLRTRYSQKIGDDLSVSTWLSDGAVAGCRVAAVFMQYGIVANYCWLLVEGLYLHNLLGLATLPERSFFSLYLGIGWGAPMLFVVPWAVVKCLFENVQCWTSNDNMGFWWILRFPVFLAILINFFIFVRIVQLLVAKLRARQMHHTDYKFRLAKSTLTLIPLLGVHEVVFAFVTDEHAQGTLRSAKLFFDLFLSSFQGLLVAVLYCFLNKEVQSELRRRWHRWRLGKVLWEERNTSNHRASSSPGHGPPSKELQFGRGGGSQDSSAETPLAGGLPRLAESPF
Assay: Glucagon Binding Assay (III)
Conditions: BHK cell membranes, WGA SPA beads, 125I-glucagon; read-out: Glu Bd Assay (III) IC50
pIC50: −log10 of the molar value.
REPORTED_PROPERTY: pIC50

Solved entries:
{"columns": ["COMPOUND", "pIC50"],
 "data": [
  ["O=C(Nc1nn[nH]n1)c1ccc(CN(C(=O)Nc2cc(Cl)cc(Cl)c2)c2ccc(N3CCCCC3)cc2)cc1", 6.26],
  ["COc1cccc2cc(C(C)NC(=O)N(Cc3ccc(C(=O)Nc4nn[nH]n4)cc3)c3ccc(C4CCCCC4)cc3)ccc12 (stereo not shown)", 7.18]
]}

a = O=C(O)CCNC(=O)c1ccc(CN(C(=O)Nc2ccc(OC(F)(F)F)cc2)c2ccc(C3CCCCC3)cc2)cc1
b = CC(C)(C)C1CCC(N(Cc2ccc(C(=O)NCCC(=O)O)cc2)C(=O)c2cc3cc(Cl)ccc3o2)CC1 (stereo not shown)
Exercise: Which entry has a larger number for pIC50, a or b ? # reply format: chosen label
Key: a

src = patent US6875760B2
